Here, each record is paired with measured GFP response, % of DMSO data.
# assaySummary: yeast AGP1-GFP level changes, GLN3 branch – cell-based, multiplex flow cytometry, S. cerevisiae, primary screen (AID 1887);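 also: AGP1-GFP fusion strain of S. cerevisiae within a five-strain barcoded multiplex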
# conditionsUsed: 3 h, at 10 µM, hits give high values
Inconclusive results are not listed.
endpoint: GFP response, % of DMSO (%)

O=C(/C=C/c1ccc(F)cc1)NC(=S)N1CCCCC1c1cccnc1 (stereo not given)    112
COc1cccc(CC2CC(=O)N(c3ccc4c(C)cc(=O)oc4c3)C2=O)c1 (stereo not given)    97.1
O=C(NC(=S)N1CCCCC1)c1cccnc1    99.4
O=C(O)c1ccc(N2C(=O)/C(=C\c3ccccc3)N=C2c2ccccc2)cc1    98
CC(=O)N1CCN(c2ccc(NC(=O)/C=C/c3ccccc3)cc2)CC1    108
CCN(CC)CCCNC(=O)C1c2ccccc2Oc2ccccc21    97.2
O=C(Nc1cccc(Oc2c(F)c(F)c(F)c(F)c2F)c1)N1C[C@@H]2C[C@@H](C1)c1cccc(=O)n1C2    101
CC1=C(/C=C/C(C)=C/C=C/C(C)=C/C(=O)O)C(C)(C)CCC1    121
COc1cc(C(=O)Nc2ccc(N(C)C)cc2)c([N+](=O)[O-])cc1OC    98.6
O=c1ccc2c(o1)/C(=C/C=C(Cl)Cl)CCC2    84

###

Here, each record is paired with measured inhibition data.
# systemUnderTest: Integrin beta-1 (Homo sapiens) + Integrin alpha-4 (Homo sapiens) (UniProt P13612+P05556)
# Sequence (P05556 whole entry, looked up): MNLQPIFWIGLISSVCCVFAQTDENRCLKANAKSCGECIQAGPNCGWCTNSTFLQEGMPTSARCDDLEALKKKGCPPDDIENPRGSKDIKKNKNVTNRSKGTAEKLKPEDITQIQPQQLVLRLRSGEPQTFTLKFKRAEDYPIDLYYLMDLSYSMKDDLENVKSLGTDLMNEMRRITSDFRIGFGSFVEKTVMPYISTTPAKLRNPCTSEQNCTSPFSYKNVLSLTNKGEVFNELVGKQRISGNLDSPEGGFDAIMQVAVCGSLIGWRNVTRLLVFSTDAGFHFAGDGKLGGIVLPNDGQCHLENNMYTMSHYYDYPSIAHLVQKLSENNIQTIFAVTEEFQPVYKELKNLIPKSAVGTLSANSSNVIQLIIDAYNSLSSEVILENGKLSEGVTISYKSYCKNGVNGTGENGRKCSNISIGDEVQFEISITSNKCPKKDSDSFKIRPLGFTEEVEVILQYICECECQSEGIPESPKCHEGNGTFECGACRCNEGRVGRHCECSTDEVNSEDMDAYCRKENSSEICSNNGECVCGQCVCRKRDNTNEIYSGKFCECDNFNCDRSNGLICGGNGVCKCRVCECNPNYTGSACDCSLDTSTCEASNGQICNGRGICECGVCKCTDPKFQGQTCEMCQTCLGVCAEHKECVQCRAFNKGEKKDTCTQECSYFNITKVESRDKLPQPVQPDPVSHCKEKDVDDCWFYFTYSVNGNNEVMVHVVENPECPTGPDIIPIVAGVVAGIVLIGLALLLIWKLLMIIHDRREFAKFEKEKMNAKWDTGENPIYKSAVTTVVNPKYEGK
# Sequence (P13612 whole entry, looked up): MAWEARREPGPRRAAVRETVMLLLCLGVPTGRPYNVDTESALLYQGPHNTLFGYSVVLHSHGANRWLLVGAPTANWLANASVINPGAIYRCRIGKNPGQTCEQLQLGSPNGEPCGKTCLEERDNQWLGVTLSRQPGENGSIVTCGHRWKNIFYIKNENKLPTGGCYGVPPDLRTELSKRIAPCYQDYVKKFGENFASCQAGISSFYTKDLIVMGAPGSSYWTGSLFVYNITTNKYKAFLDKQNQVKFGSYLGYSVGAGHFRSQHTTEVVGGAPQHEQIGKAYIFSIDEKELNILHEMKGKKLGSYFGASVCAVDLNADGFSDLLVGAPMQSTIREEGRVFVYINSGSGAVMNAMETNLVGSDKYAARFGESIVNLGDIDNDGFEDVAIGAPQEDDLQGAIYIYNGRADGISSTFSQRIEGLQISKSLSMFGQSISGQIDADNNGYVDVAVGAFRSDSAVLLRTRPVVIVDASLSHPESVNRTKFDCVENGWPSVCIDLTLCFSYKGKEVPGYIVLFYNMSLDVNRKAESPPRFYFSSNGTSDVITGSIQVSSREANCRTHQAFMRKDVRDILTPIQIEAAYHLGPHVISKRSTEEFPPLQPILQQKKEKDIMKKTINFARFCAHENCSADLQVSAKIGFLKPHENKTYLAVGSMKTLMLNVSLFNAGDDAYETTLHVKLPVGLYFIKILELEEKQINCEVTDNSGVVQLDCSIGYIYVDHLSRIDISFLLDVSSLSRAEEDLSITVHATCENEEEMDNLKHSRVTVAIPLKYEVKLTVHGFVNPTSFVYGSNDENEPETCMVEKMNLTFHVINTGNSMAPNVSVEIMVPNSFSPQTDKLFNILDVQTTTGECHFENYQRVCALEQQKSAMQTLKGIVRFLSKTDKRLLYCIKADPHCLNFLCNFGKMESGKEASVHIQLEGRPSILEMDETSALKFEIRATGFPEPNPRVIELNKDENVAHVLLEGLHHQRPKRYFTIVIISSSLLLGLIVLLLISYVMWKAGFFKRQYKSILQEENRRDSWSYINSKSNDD
# assaySummary: alpha4beta1 integrin LIBS antibody binding reduction – U937 cells, HUTS-21 mAb, flow cytometry, validation set, VLA-4 allosteric modulator project, pilot screen (AID 2674);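 also: antibody binding induced by the VLA-4 ligand LDV present at three times its Kd; 0% = LDV ligand with antibody and no compound and 100% = antibody without LDV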
# conditionsUsed: HUTS-21 LIBS mAb binding, at 6.7 µM, hits give high values, binding induced by LDV ligand
Activity calls are given as the source filed them.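 Rule for the calls: active = inhibition above 50%, about 3 SD of the validation set; inactive = the rest.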
endpoint: inhibition

COc1cc(-c2nnc(-c3cccs3)o2)cc(OC)c1OC    -1.09% (inactive)
COc1cc2cc(C(=O)O)[nH]c2c(OC)c1OC    -1.49% (inactive)
CC(=O)N1c2ccccc2C(C)=CC1(C)C    -17.3% (inactive)
C[C@]12CC[C@@H]3c4ccc(O)cc4CC[C@H]3[C@@H]1CC[C@@H]2OC(=O)CCC(=O)O    -15.8% (inactive)
Cc1ccc(Cl)c(Nc2ccccc2C(=O)O)c1Cl    2.29% (inactive)
Cc1ccccc1NC(=O)c1c(C)cc(=O)oc1C    5.77% (inactive)
CN(CCO)CC(O)Cn1cnc2c1c(=O)n(C)c(=O)n2C (stereo unspecified) (tested in a mixture with another compound)    14.2% (inactive)
CCc1cc2c(=O)c(-c3nc(C)cs3)coc2cc1OC(C)C(=O)NCCO (stereo unspecified)    9.37% (inactive)
O=[N+]([O-])c1cccc2cn[nH]c12    -13.9% (inactive)
Cn1c(=O)c(C(=O)NCCO)c(O)c2ccccc21    15.9% (inactive)
Cc1cc(O)c2/c(=N\N)c(-c3csc(C)n3)coc2c1    5.61% (inactive)

###

Here, each record is paired with measured inhibition data.
# systemUnderTest: AP-2 complex subunit beta (Homo sapiens) (UniProt P63010)
# Sequence (P63010 whole entry, looked up, one chain of several): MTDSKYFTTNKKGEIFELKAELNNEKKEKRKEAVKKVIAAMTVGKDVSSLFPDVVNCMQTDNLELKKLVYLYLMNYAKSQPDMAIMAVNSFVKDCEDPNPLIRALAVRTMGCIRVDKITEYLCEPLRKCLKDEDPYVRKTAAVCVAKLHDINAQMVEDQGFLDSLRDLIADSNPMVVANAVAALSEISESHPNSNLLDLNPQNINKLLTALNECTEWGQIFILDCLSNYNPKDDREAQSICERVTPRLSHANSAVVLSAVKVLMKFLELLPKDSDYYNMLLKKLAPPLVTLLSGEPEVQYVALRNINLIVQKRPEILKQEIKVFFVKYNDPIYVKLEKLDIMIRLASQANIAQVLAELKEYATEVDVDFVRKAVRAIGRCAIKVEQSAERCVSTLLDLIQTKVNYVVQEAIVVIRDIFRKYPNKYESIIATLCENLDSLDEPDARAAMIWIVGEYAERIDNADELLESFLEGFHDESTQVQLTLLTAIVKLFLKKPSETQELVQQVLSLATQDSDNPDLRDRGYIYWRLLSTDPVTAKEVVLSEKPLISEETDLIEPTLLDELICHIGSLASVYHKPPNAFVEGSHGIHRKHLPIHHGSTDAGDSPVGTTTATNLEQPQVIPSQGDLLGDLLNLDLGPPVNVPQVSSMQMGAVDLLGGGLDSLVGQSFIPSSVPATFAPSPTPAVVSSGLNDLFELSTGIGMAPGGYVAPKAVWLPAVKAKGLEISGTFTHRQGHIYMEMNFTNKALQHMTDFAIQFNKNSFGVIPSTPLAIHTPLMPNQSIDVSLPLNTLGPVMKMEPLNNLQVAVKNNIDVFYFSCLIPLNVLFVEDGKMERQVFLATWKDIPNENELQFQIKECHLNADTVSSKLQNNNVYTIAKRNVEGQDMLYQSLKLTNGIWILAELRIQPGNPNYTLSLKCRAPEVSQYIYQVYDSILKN
# assaySummary: beta-arrestin/AP2 interaction blockers – biochemical, validation set, GST-AP2 beads, flow cytometry, pilot screen (AID 504541);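 also: AP2 carries R879A mutation and is captured from E. coli lysate; bead-bound FITC arrestin peptide fluorescence measuring arrestin peptide binding to AP2; 0% = DMSO wells and 100% = excess unlabeled arrestin peptide control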
# conditionsUsed: FITC arrestin peptide, at 10 µM, hits give high values, AP2 beta2 appendage fragment, R879A mutant
endpoint: inhibition (%)

Nc1ccc2cn[nH]c2c1    0.32
COc1ccccc1N1C(=O)C2CC(C)=C(C)CC2C1=O (stereo not given)    -31.7
COc1ccc2cc(C(=O)Nc3ccc(S(N)(=O)=O)cc3)sc(=O)c2c1OC    -1.93
COc1cc(C(=O)CCN2CCC(c3ccccc3)C2)cc(OC)c1OC (stereo not given)    4.79
CC(C)(C)N1NC2(CCCCC2)NC1=S    -12.7
CN(Cc1c(C(=O)N(C)Cc2ccccc2)nc2ccccn12)CC1Cc2ccccc2O1 (stereo not given)    -19.1
CC(=O)C1=C(O)C(=O)OC1c1ccc(C)cc1 (stereo not given)    21.9
C[C@H]1C[C@@H]2[C@H]([C@@H](O)C[C@@]3(C)[C@H]2CC[C@]3(O)C(=O)CO)[C@@]2(C)C=CC(=O)C=C12    2.63
COc1ccc(OC)c(NC2=C(Cl)C(=O)N(Cc3ccccc3)C2=O)c1    5.66
CCOC(=O)C1=C[C@]2(CC)CCCN3CCc4c(n1c1ccccc41)[C@@H]32    -10.5
